system: SNB-19 CNS; assay: NCI tumour cell line growth inhibition, 48 h; in the data active = GI50 below about 0.43 µM; inactive = the rest
Choose one outcome from this list and give only that: y (active), n (inactive)

Query string: Name the outcome recorded for C[C@]12CC[C@@H]3c4ccc(O)cc4C(O)C[C@H]3[C@@H]1CCC2=O (stereo partly drawn) in the assay.
Result string: n

Query string: # lookup: test call for Cc1c2ccc(N(C)c3ccnc(Nc4cccc(S(N)(=O)=O)c4)n3)cc2nn1C
Result string: n

Query string: Please indicate how the test categorized O=C1CCCN1CC#CCN1CCCC1 .
Result string: n

Query string: Hey, what did the test say about COc1ccc(-c2cn[nH]c2-c2cc(OC)c3c(c2)OCCO3)cc1 ?
Result string: y

Query string: What did this assay record as the result for CCN(CCNc1ccc(C)c2sc3ccccc3c(=O)c12)CC(C)(C)O ?
Result string: n

Query string: Can you look up the reported call for CC(C)[C@H]1C(=O)N[C@@H](CCCN=C(N)N)C(=O)NCC(=O)N[C@@H](CC(=O)O)C(=O)N[C@H](Cc2ccccc2)C(=O)N1C for me?
Result string: n

Query string: Entry COc1cc(S(C)(=O)=O)ccc1Nc1nc2ccc(-c3ccc(NC(=O)[C@H](C)c4ccc(F)cc4)cc3)cn2n1 : call = ?
Result string: n

Query string: How did this test come out for O=C([CH-]C(=O)C(F)(F)F)c1ccccc1.O=C([CH-]C(=O)C(F)(F)F)c1ccccc1.O=C([CH-]C(=O)C(F)(F)F)c1ccccc1.O=C([CH-]C(=O)C(F)(F)F)c1ccccc1.[Eu+3].c1ccncc1 ?
Result string: n

Query string: Dear all, I need the recorded test outcome for CCCCCCN(CCCCCC)CC(O)c1ccc2c3c(cccc13)CC2 (stereo not drawn) , thank you.
Result string: n

Query string: Test call for this molecule, please: COC(=O)CCC1=C(C)/C(=C/c2[nH]c(-c3ccc[nH]3)cc2OC)N=C1C
Result string: n

Query string: Would you mind telling me which call this test gave O=[N+]([O-])c1ccc2c(c1)[O][Sn]([I])([I])[O]2 ?
Result string: n

Query string: For COc1cc(/C=C2/N=C(c3ccccc3)N(C3=NNC4(C(=O)N3)c3ccccc3-c3ccccc34)NC2=O)ccc1O , which call appears in the assay record?
Result string: n

Query string: Identify the outcome logged in this assay for the molecule shown: COc1ccc(Cn2c(Cl)c(/C=C3/C(=O)Nc4ccccc43)c3cc(OC)c(C)cc32)cc1
Result string: n

---

test system: SNB-75 CNS; assay: NCI tumour cell line growth inhibition, 48 h
Measured property: TGI (µM)
I only need the number, in µM, no unit after it.

Query string: For COc1c(C)c(OC)c2c(c1O)[C@@H]1[C@@H]3Cc4c(OC)c(C)c(OC)c(O)c4[C@H](CNC(=O)c4cnc5ccccc5n4)N3[C@@H](C#N)[C@H](C2)N1C , write its TGI.
Result string: 0.00552

Query string: Give me measured TGI, please, for this compound: CCCCCCN(CCCCCC)CC(O)c1ccc2c3c(cccc13)CC2 (centres undefined)
Result string: 27.1

---

tested on: SNB-75 CNS; experiment: NCI tumour cell line growth inhibition, 48 h
Measured property: TGI

Query string: Give recorded TGI. CC(C)Oc1cc(O)c2c(c1)OCC=C2CCC(=O)O
Result string: > 100 µM

Query string: Complete the entry with TGI for CSC1=NS(=O)(=O)c2cc(C(=O)NN(C)C(=O)c3cc4c(cc3Cl)SC(SC)=NS4(=O)=O)c(Cl)cc2S1
Result string: > 10 µM

Query string: Kindly indicate its recorded TGI. Item: CC(C)N(C)C(=O)C12C3C4C1C1C2C3C41C#N (stereo not given)
Result string: > 100 µM

Query string: Retrieve TGI measured for COc1ccccc1Nc1nc(NNC(=O)Cc2ccccc2)nc(NNC(=O)c2ccncc2)n1 and print it.
Result string: > 10 µM

Query string: Answer with the recorded TGI of COc1cc2c(cc1OC)-c1c3c(cc4c1[C@@H](C2)N(C)CC4)OCO3 only.
Result string: 23.9 µM
